// data source = patent US20060068468A1

Target: T1, GDF-11 (UniProt O95390 299-407)
T1 construct: also called Growth and Differentiation Factor-11; BMP11
T1 sequence (looked up): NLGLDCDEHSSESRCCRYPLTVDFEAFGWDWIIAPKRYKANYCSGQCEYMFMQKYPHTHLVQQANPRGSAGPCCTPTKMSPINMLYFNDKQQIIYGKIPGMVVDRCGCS
Assay: BiaCore, ligand immobilized on CM5 chip
Measured Attribute: binding result

Binder: ActRIIB-Fc D80M (Fc fusion, Mutation in the background ActRIIB-Fc) SGRGEAETRECIYYNANWELERTNQSGLERCEGEQDKRLHCYASWANSSGTIELVKKGCWLMDFNCYDRQECVATEENPQVYFCCCEGNFCNERFTHLPEAGGGTHTCPPCPAPELLGGPSVFLFPPKPKDTLMISRTPEVTCVVVDVSHEDPEVKFNWYVDGVEVHNAKTKPREEQYNSTYRVVSVLTVLHQDWLNGKEYKCKVSNKALPVPIEKTISKAKGQPREPQVYTLPPSREEMTKNQVSLTCLVKGFYPSDIAVEWESNGQPENNYKTTPPVLDSDGSFFLYSKLTVDKSRWQQGNVFSCSVMHEALHNHYTQKSLSLSPGK
Reported: no binding
--
Binder: ActRIIB-Fc K55A (Fc fusion, Mutation in the background ActRIIB-Fc) SGRGEAETRECIYYNANWELERTNQSGLERCEGEQDARLHCYASWANSSGTIELVKKGCWLDDFNCYDRQECVATEENPQVYFCCCEGNFCNERFTHLPEAGGGTHTCPPCPAPELLGGPSVFLFPPKPKDTLMISRTPEVTCVVVDVSHEDPEVKFNWYVDGVEVHNAKTKPREEQYNSTYRVVSVLTVLHQDWLNGKEYKCKVSNKALPVPIEKTISKAKGQPREPQVYTLPPSREEMTKNQVSLTCLVKGFYPSDIAVEWESNGQPENNYKTTPPVLDSDGSFFLYSKLTVDKSRWQQGNVFSCSVMHEALHNHYTQKSLSLSPGK
Reported: no binding
